Settings: mouse, in vivo, sc, 50 mg/kg
e = 2'-O-(2-methoxyethyl) (MOE); d = 2'-deoxy (DNA)
Property Name: AST (IU/L)
Numbers only, in IU/L.

Please supply AST for each of the following items, keeping them in order.
1. ISIS 413482: 5-10-5 MOE gapmer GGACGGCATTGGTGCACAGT (sugars from the 5' end e5 d10 e5, backbone and methylation of C not given here)
2. ISIS 416862: MOE gapmer, nucleobases 1275 to 1318 of SEQ ID NO: 1 (Table 8) (antisense AGCGGACGGCATTGGTGCAC; MOE gapmer, wing and gap sizes not given here)
3. ISIS 412225: 5-10-5 MOE gapmer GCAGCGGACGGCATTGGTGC (sugars from the 5' end e5 d10 e5, backbone and methylation of C not given here)
4. ISIS 416857: MOE gapmer, nucleobases 1275 to 1318 of SEQ ID NO: 1 (Table 8) (antisense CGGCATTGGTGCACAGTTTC; MOE gapmer, wing and gap sizes not given here)
5. ISIS 416856: MOE gapmer, nucleobases 1275 to 1318 of SEQ ID NO: 1 (Table 8) (antisense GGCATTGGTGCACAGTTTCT; MOE gapmer, wing and gap sizes not given here)
6. ISIS 416854: MOE gapmer, nucleobases 1275 to 1318 of SEQ ID NO: 1 (Table 8) (antisense ATTGGTGCACAGTTTCTGGC; MOE gapmer, wing and gap sizes not given here)
7. ISIS 412224: 5-10-5 MOE gapmer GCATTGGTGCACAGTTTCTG (sugars from the 5' end e5 d10 e5, backbone and methylation of C not given here)
8. ISIS 416850: MOE gapmer, nucleobases 1275 to 1318 of SEQ ID NO: 1 (Table 8) (antisense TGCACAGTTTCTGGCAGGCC; MOE gapmer, wing and gap sizes not given here)

1. 77
2. 172
3. 69
4. 269
5. 129
6. 1140
7. 183
8. 99

Please supply AST for each of the following items, keeping them in order.
1. ISIS 416863: MOE gapmer, nucleobases 1275 to 1318 of SEQ ID NO: 1 (Table 8) (antisense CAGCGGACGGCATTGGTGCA; MOE gapmer, wing and gap sizes not given here)
2. ISIS 416849: MOE gapmer, nucleobases 1275 to 1318 of SEQ ID NO: 1 (Table 8) (antisense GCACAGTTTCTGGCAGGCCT; MOE gapmer, wing and gap sizes not given here)

101
582

Please supply AST for each of the following items, keeping them in order.
1. ISIS 412223: 5-10-5 MOE gapmer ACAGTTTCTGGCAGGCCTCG (sugars from the 5' end e5 d10 e5, backbone and methylation of C not given here)
2. ISIS 416861: MOE gapmer, nucleobases 1275 to 1318 of SEQ ID NO: 1 (Table 8) (antisense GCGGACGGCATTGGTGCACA; MOE gapmer, wing and gap sizes not given here)

1: 125; 2: 85

Please supply AST for each of the following items, keeping them in order.
1. ISIS 416855: MOE gapmer, nucleobases 1275 to 1318 of SEQ ID NO: 1 (Table 8) (antisense CATTGGTGCACAGTTTCTGG; MOE gapmer, wing and gap sizes not given here)
2. ISIS 416860: MOE gapmer, nucleobases 1275 to 1318 of SEQ ID NO: 1 (Table 8) (antisense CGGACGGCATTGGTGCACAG; MOE gapmer, wing and gap sizes not given here)
3. ISIS 416866: MOE gapmer, nucleobases 1275 to 1318 of SEQ ID NO: 1 (Table 8) (antisense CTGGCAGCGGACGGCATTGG; MOE gapmer, wing and gap sizes not given here)
4. ISIS 416865: MOE gapmer, nucleobases 1275 to 1318 of SEQ ID NO: 1 (Table 8) (antisense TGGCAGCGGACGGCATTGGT; MOE gapmer, wing and gap sizes not given here)

1: 580; 2: 160; 3: 120; 4: 262

Please supply AST for each of the following items, keeping them in order.
1. ISIS 416848: MOE gapmer, nucleobases 1275 to 1318 of SEQ ID NO: 1 (Table 8) (antisense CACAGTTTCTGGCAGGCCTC; MOE gapmer, wing and gap sizes not given here)
2. ISIS 416853: MOE gapmer, nucleobases 1275 to 1318 of SEQ ID NO: 1 (Table 8) (antisense TTGGTGCACAGTTTCTGGCA; MOE gapmer, wing and gap sizes not given here)

153
1087
